System tested: MCL1 (Homo sapiens, UniProt Q07820)
Sequence (Q07820 whole entry): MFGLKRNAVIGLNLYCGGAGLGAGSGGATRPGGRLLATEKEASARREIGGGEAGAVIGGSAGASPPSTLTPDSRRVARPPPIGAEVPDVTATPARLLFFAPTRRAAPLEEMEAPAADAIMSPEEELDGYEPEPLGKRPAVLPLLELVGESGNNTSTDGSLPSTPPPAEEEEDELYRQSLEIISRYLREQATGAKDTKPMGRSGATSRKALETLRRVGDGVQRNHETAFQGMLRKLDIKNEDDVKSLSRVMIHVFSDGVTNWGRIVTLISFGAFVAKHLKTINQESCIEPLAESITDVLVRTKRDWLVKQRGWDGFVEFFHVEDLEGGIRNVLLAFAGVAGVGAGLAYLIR
Experimental protocol: MCL1 affinity assay (competition binding, qPCR readout)
Condition summary: recombinant MCL1, 11-point 3-fold dilution series
pKd: −log10 of the molar value.
Record form. Attribute: pKd. Fill in for each entry.

Name the recorded pKd for Cc1c(-c2c(-c3ccc(F)c4ccoc34)ncc3snc(O[C@H](Cc4ccccc4OCc4ccnn4CC(F)(F)F)C(=O)O)c23)ccc(OCCN2CCN(C)CC2)c1Cl (atropisomer, axis not shown) . 6.30 to 7.00

Request the reported pKd associated with COc1ccccc1-c1nccc(COc2ccccc2C[C@@H](Oc2nsc3cnc(-c4cccc(F)c4)c(-c4ccc(OCCC5CCN(C)CC5)c(Cl)c4C)c23)C(=O)O)n1 (atropisomer, axis not shown) ≥ 7.00

Value lookup for pKd; key = Cc1c(-c2c(C3CCC3)ncc3snc(O[C@H](Cc4ccccc4OCc4ccnc(C5CCOCC5)n4)C(=O)O)c23)ccc(OCCN2CCN(C)CC2)c1Cl (atropisomer, axis not shown) ≥ 7.00

Data request, read-out pKd, for Cc1c(-c2c(Cl)ncc3snc(O[C@H](Cc4ccccc4OCc4ccnn4CC(F)(F)F)C(=O)O)c23)ccc(OCCN2CCN(C)CC2)c1Cl (single isomer, unassigned) [Compound 4] 5.82 to 6.30

Reported pKd for Cc1c(-c2c(C3CCC3)ncc3snc(O[C@H](Cc4ccccc4OCc4ccnc(C5CC5)n4)C(=O)O)c23)ccc(OCCN2CCN(C)CC2)c1Cl (atropisomer, axis not shown) : what is it? 6.30 to 7.00

###

System tested: MCL1 (Homo sapiens)
Experimental protocol: MCL1 affinity assay (competition binding, qPCR readout)
Condition summary: recombinant MCL1, 11-point 3-fold dilution series
Measured parameter: Kd

Request: Kd, test system MCL1 (Homo sapiens), entry Cc1c(-c2c(-c3cccc4c3ccn4C)ncc3snc(O[C@H](Cc4ccccc4OCc4ccnn4CC(F)(F)F)C(=O)O)c23)ccc(OCCN2CCN(C)CC2)c1Cl (atropisomer, axis not shown) [Compound 15] 501 to 1500 nM

Given the entry COc1ccccc1-c1nccc(COc2ccccc2C[C@@H](Oc2nsc3cnc(-c4cccc(F)c4)c(-c4ccc(OCCN(C)C)c(Cl)c4C)c23)C(=O)O)n1 (atropisomer, axis not shown) [Compound 55] , what Kd was observed with MCL1 (Homo sapiens)? ≤ 100 nM

Could you share what Kd was measured for Cc1c(-c2c(-c3cccc4ccccc34)ncc3snc(O[C@H](Cc4ccccc4OCc4ccnn4CC(F)(F)F)C(=O)O)c23)ccc(OCCN2CCN(C)CC2)c1Cl (atropisomer, axis not shown) [Compound 7] , tested on MCL1 (Homo sapiens)? > 1500 nM

Test system MCL1 (Homo sapiens); read-out Kd; what value for Cc1c(-c2c(Cl)ncc3snc(O[C@H](Cc4ccccc4OCc4ccnn4CC(F)(F)F)C(=O)O)c23)ccc(OCCN2CCN(C)CC2)c1Cl (single isomer, unassigned) [Compound 3] ? > 1500 nM

Can you look up Kd on MCL1 (Homo sapiens) for CCOc1cccc(-c2ncc3snc(O[C@H](Cc4ccccc4OCc4ccnc(-c5ccccc5OC)n4)C(=O)O)c3c2-c2ccc(OCCN3CCN(C)CC3)c(Cl)c2C)c1 (atropisomer, axis not shown) [Compound 87] ? ≤ 100 nM

###

System tested: UniProtKB P10415
Sequence (P10415 whole entry): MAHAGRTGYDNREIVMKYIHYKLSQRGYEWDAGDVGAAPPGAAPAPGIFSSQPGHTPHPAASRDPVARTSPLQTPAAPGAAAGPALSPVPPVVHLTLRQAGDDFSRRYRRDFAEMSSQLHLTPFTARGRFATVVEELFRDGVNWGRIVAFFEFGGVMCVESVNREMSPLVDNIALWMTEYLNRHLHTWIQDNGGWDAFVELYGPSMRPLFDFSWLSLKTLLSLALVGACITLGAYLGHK
Experimental protocol: BCL2 affinity assay (competition binding, qPCR readout)
Condition summary: recombinant BCL2, 11-point 3-fold dilution series
pKd: −log10 of the molar value.
Measured parameter: pKd

Bench note: what pKd did COc1cccc(-c2ncc3snc(O[C@H](Cc4ccccc4OCc4ccnc(-c5ccccc5OC)n4)C(=O)O)c3c2-c2ccc(OC[C@H]3CCCN3C)c(Cl)c2C)c1 (atropisomer, axis not shown) show? < 5.82

Tell me the measured pKd of Cc1c(-c2c(-c3cccc4[nH]c(C(F)(F)F)cc34)ncc3snc(O[C@H](Cc4ccccc4OCc4ccnn4CC(F)(F)F)C(=O)O)c23)ccc(OCCN2CCN(C)CC2)c1Cl (atropisomer, axis not shown) , please. < 5.82

Recorded pKd for Cc1c(-c2c(-c3csc4ccccc34)ncc3snc(O[C@H](Cc4ccccc4OCc4ccnn4CC(F)(F)F)C(=O)O)c23)ccc(OCCN2CCN(C)CC2)c1Cl (atropisomer, axis not shown) , please? < 5.82

###

For each of the compounds below, state its pKd.
System tested: MCL1 (Homo sapiens)
Experimental protocol: MCL1 affinity assay (competition binding, qPCR readout)
Condition summary: recombinant MCL1, 11-point 3-fold dilution series
pKd: −log10 of the molar value.

# returns recorded pKd (system: MCL1 (Homo sapiens)) for Cc1c(-c2c(C3CCC3)ncc3snc(O[C@H](Cc4ccccc4OCc4ccnc(C5CCC5)n4)C(=O)O)c23)ccc(OCCN2CCN(C)CC2)c1Cl (atropisomer, axis not shown) 6.30 to 7.00

Request: pKd, test system MCL1 (Homo sapiens), entry COc1ccccc1-c1nccc(COc2ccccc2C[C@@H](Oc2nsc3cnc(-c4cnc(C)o4)c(-c4ccc(OCCN5CCN(C)CC5)c(Cl)c4C)c23)C(=O)O)n1 (atropisomer, axis not shown) ≥ 7.00

Item: COCCOc1ccc(-c2c(-c3cccc(OC)c3)ncc3snc(O[C@H](Cc4ccccc4OCc4ccnc(-c5ccccc5OC)n4)C(=O)O)c23)c(C)c1Cl (atropisomer, axis not shown) Test system: MCL1 (Homo sapiens) Read-out: pKd Value: ? ≥ 7.00

###

System tested: MCL1 (Homo sapiens, UniProt Q07820)
Experimental protocol: MCL1 affinity assay (competition binding, qPCR readout)
Condition summary: recombinant MCL1, 11-point 3-fold dilution series
pKd: −log10 of the molar value.
Measured parameter: pKd

Recorded pKd for Cc1cc(C#N)ccc1-c1nccc(COc2ccccc2C[C@@H](Oc2nsc3cnc(C4CCC4)c(-c4ccc(OCCN5CCN(C)CC5)c(Cl)c4C)c23)C(=O)O)n1 (atropisomer, axis not shown) , please? ≥ 7.00

Which measured pKd value corresponds to Cc1c(-c2c(-c3ccc4sccc4c3)ncc3snc(O[C@H](Cc4ccccc4OCc4ccnn4CC(F)(F)F)C(=O)O)c23)ccc(OCCN2CCN(C)CC2)c1Cl (atropisomer, axis not shown) ? < 5.82

So what's the measured pKd for this one? Cn1nc(-c2cc(CC3CCC3)c3c(O[C@H](Cc4ccccc4OCc4ccnn4CC(F)(F)F)C(=O)O)nsc3c2)c2ccc(Cl)cc21 < 5.82

###

Kindly supply the reported pIC50 values for the records listed here.
Test system: drug-resistant cell lines of Table 3
Experimental protocol: Cell line growth retardation assay, resistant cohort
Assay type: cell-based, Human
Condition summary: Homo sapiens, 144 h; arithmetic mean of IC50s over the resistant cohort of Table 3, 6 days growth; read-out: AvgRes IC50
pIC50: −log10 of the molar value.

Reported pIC50 for COc1cccc(-c2ncc3snc(O[C@H](Cc4ccccc4OCc4ccnc(-c5ccccc5OC(F)F)n4)C(=O)O)c3c2-c2ccc(OCCN3CCN(C)CC3)c(Cl)c2C)c1 (atropisomer, axis not shown) : what is it? < 5.30

Fill in: pIC50 of Cc1c(-c2c(Cl)ncc3snc(O[C@H](Cc4ccccc4OCc4ccnn4CC(F)(F)F)C(=O)O)c23)ccc(OCCN2CCN(C)CC2)c1Cl (single isomer, unassigned) is ___ < 5.30

Which measured pIC50 value corresponds to Cc1c(-c2c(-c3cccc(F)c3)ncc3snc(O[C@H](Cc4ccccc4OCc4ccnn4CC(F)(F)F)C(=O)O)c23)ccc(OCCN2CCN(C)CC2)c1Cl (atropisomer, axis not shown) ? < 5.30

pIC50 for Cc1c(-c2c(-c3cccc(C(F)(F)F)c3)ncc3snc(O[C@H](Cc4ccccc4OCc4ccnn4CC(F)(F)F)C(=O)O)c23)ccc(OCCN2CCN(C)CC2)c1Cl (atropisomer, axis not shown) ? < 5.30

pIC50 for CCOc1cccc(-c2ncc3snc(O[C@H](Cc4ccccc4OCc4ccnc(-c5ccccc5OC)n4)C(=O)O)c3c2-c2ccc(OCCN3CCN(C)CC3)c(Cl)c2C)c1 (atropisomer, axis not shown) ? < 5.30

###

System tested: UniProt:Q07817
Sequence (Q07817 whole entry): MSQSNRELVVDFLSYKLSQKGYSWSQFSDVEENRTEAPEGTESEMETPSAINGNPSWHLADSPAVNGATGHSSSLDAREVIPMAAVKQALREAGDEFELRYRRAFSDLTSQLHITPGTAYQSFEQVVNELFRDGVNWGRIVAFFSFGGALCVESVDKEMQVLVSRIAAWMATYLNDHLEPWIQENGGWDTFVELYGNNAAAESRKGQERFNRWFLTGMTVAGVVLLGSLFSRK
Experimental protocol: BCLXL affinity assay (competition binding, qPCR readout)
Condition summary: recombinant BCLXL, 11-point 3-fold dilution series
pKd: −log10 of the molar value.
Measured parameter: pKd

Sample COc1cccc(-c2ncc3snc(O[C@H](Cc4ccccc4OCc4ccnc(-c5ccccc5OC)n4)C(=O)O)c3c2-c2ccc(OCCCN(C)C)c(Cl)c2C)c1 (atropisomer, axis not shown) — what was its pKd? < 5.82

Item Cc1c(-c2c(-c3cccc4ccsc34)ncc3snc(O[C@H](Cc4ccccc4OCc4ccnn4CC(F)(F)F)C(=O)O)c23)ccc(OCCN2CCN(C)CC2)c1Cl (atropisomer, axis not shown) has what recorded pKd? < 5.82

Any idea what its pKd is? The molecule is COc1cccc(-c2ncc3snc(O[C@H](Cc4ccccc4OCc4ccnc(-c5ccccc5OC)n4)C(=O)O)c3c2-c2ccc(O)c(Cl)c2C)c1 (atropisomer, axis not shown) < 5.82

What value of pKd has been reported for the following molecule? Cc1c(-c2c(-c3ccsc3)ncc3snc(O[C@H](Cc4ccccc4OCc4ccnn4CC(F)(F)F)C(=O)O)c23)ccc(OCCN2CCN(C)CC2)c1Cl (atropisomer, axis not shown) < 5.82

# pKd lookup, item Cc1c(-c2c(-c3cccc4c3sc3ccccc34)ncc3snc(O[C@H](Cc4ccccc4OCc4ccnn4CC(F)(F)F)C(=O)O)c23)ccc(OCCN2CCN(C)CC2)c1Cl (atropisomer, axis not shown) < 5.82
